Tested on: H9
Protocol Details: Percentage of gag protein expression using H9 cells at 20 uM on 12th day
Format: functional, Homo sapiens
Measured Attribute: Expression
Remember to put the unit after the number in your answer.

Challenge: Bench note: what Expression did O=c1[nH]cnc2c1ncn2[C@H]1CC[C@@H](CO)O1 [DIDANOSINE] show?
Response given: 48%

Challenge: Bench note: what Expression did `Nc1ncnc2c1ncn2[C@H]1CC[C@@H](CO)O1` show?
Response given: 8%

Challenge: Bench note: what Expression did OCC1CC(F)C(n2cnc3c(O)ncnc32)O1 (centres undefined) show?
Response given: 61%

Challenge: Bench note: what Expression did Nc1ncnc2c1ncn2[C@@H]1O[C@H](CO)C[C@@H]1F [LODENOSINE] show?
Response given: 53%
